What FICI minimum was measured for each of the following?
Tested on: Candida glabrata ZIM 2385 (RPMI)
Test: FICI minimum (fractional inhibitory concentration index, Loewe) (dimensionless); higher = less synergy / more antagonism
Settings: temperature: 37 °C

These recorded examples may help you get a feel for the data.
C=CC[C@@H]1/C=C(\C)C[C@H](C)C[C@H](OC)[C@H]2O[C@@](O)(C(=O)C(=O)N3CCCC[C@H]3C(=O)O[C@H](/C(C)=C/[C@@H]3CC[C@@H](O)[C@H](OC)C3)[C@H](C)[C@@H](O)CC1=O)[C@H](C)C[C@@H]2OC [tacrolimus] + CCC(C)n1ncn(-c2ccc(N3CCN(c4ccc(OCC5COC(Cn6cncn6)(c6ccc(Cl)cc6Cl)O5)cc4)CC3)cc2)c1=O [itraconazole]	0.0725
CC1(C)S[C@@H]2[C@H](NC(=O)[C@H](N)c3ccc(O)cc3)C(=O)N2[C@H]1C(=O)O [amoxicillin] + C[C@@H]1[C@H](O)[C@@H](C)/C=C/C=C/C=C/C=C/C=C/C=C/C=C/[C@H](O[C@@H]2O[C@H](C)[C@@H](O)[C@H](N)[C@@H]2O)C[C@@H]2O[C@](O)(C[C@@H](O)C[C@@H](O)[C@H](O)CC[C@@H](O)C[C@@H](O)CC(=O)O[C@H]1C)C[C@H](O)[C@H]2C(=O)O [amphotericin B]	0.508
COc1c(C)c2c(c(O)c1C/C=C(\C)CCC(=O)O)C(=O)OC2 [mycophenolic acid] + OC(Cn1cncn1)(Cn1cncn1)c1ccc(F)cc1F [fluconazole]	0.508
CC1(C)S[C@@H]2[C@H](NC(=O)[C@H](N)c3ccc(O)cc3)C(=O)N2[C@H]1C(=O)O [amoxicillin] + CCC(C)n1ncn(-c2ccc(N3CCN(c4ccc(OCC5COC(Cn6cncn6)(c6ccc(Cl)cc6Cl)O5)cc4)CC3)cc2)c1=O [itraconazole]	1.01

Please give FICI minimum, item by item, for the list that follows.
1. C=CC[C@@H]1/C=C(\C)C[C@H](C)C[C@H](OC)[C@H]2O[C@@](O)(C(=O)C(=O)N3CCCC[C@H]3C(=O)O[C@H](/C(C)=C/[C@@H]3CC[C@@H](O)[C@H](OC)C3)[C@H](C)[C@@H](O)CC1=O)[C@H](C)C[C@@H]2OC [tacrolimus] + OC(Cn1cncn1)(Cn1cncn1)c1ccc(F)cc1F [fluconazole]
2. CN(Cc1cnc2nc(N)nc(N)c2n1)c1ccc(C(=O)N[C@@H](CCC(=O)O)C(=O)O)cc1 [methotrexate] + CCC(C)n1ncn(-c2ccc(N3CCN(c4ccc(OCC5COC(Cn6cncn6)(c6ccc(Cl)cc6Cl)O5)cc4)CC3)cc2)c1=O [itraconazole]
3. CN(Cc1cnc2nc(N)nc(N)c2n1)c1ccc(C(=O)N[C@@H](CCC(=O)O)C(=O)O)cc1 [methotrexate] + OC(Cn1cncn1)(Cn1cncn1)c1ccc(F)cc1F [fluconazole]

(A)
1: 1; 2: 0.505; 3: 1
